I'd be grateful if you could share measured pEC50 for these entries.
- Assayed Target: Progesterone receptor (Homo sapiens, UniProt P06401)
- Procedure Details: Agonistic activity against human progesterone receptor in CV-1 cells
- Type: functional, cell-based
Give bare numbers, as −log10 of the molar value.

Structure Notation	Assayed Target	Measured
CC1=CC(C)(C)Nc2ccc3c(c21)/C(=C/c1ccccc1C(F)(F)F)Oc1ccc(F)cc1-3	Progesterone receptor (Homo sapiens, UniProt P06401)	7.85
CC1=CC(C)(C)Nc2ccc3c(c21)/C(=C/c1cccc(F)c1)Oc1c(F)cccc1-3	Progesterone receptor (Homo sapiens, UniProt P06401)	8.57
CC1=CC(C)(C)Nc2ccc3c(c21)/C(=C/c1ccccc1Br)Oc1ccc(F)cc1-3	Progesterone receptor (Homo sapiens, UniProt P06401)	8.05
CC1=CC(C)(C)Nc2ccc3c(c21)/C(=C/c1ccncc1)Oc1ccc(F)cc1-3	Progesterone receptor (Homo sapiens, UniProt P06401)	8.24
CC1=CC(C)(C)Nc2ccc3c(c21)/C(=C/c1ccccc1)Oc1c(F)cccc1-3	Progesterone receptor (Homo sapiens, UniProt P06401)	8.68
CC1=CC(C)(C)Nc2ccc3c(c21)/C(=C/c1ccccc1N(C)C)Oc1ccc(F)cc1-3	Progesterone receptor (Homo sapiens, UniProt P06401)	8.57
CC1=CC(C)(C)Nc2ccc3c(c21)/C(=C/c1ccsc1)Oc1ccc(F)cc1-3	Progesterone receptor (Homo sapiens, UniProt P06401)	9.15
CC1=CC(C)(C)Nc2ccc3c(c21)/C(=C/c1ccccc1C)Oc1ccc(F)cc1-3	Progesterone receptor (Homo sapiens, UniProt P06401)	8.44

Hi team, please reply with pEC50 for each item in this list.
1. CC1=CC(C)(C)Nc2ccc3c(c21)/C(=C/c1ccccc1C)Oc1c(F)cccc1-3
2. CC1=CC(C)(C)Nc2ccc3c(c21)/C(=C/c1ccccc1OC(F)(F)F)Oc1ccc(F)cc1-3
3. CC1=CC(C)(C)Nc2ccc3c(c21)/C(=C/c1ccco1)Oc1ccc(F)cc1-3

Response:
1: 8.85; 2: 7.96; 3: 8.77

Query: Give its pEC50 value. Item: CC1=CC(C)(C)Nc2ccc3c(c21)/C(=C/c1ccccc1C#N)Oc1ccc(F)cc1-3
Response: 7.96

###

- Assayed Target: Progesterone receptor (Homo sapiens) (UniProt P06401)
- Sequence (P06401 whole entry): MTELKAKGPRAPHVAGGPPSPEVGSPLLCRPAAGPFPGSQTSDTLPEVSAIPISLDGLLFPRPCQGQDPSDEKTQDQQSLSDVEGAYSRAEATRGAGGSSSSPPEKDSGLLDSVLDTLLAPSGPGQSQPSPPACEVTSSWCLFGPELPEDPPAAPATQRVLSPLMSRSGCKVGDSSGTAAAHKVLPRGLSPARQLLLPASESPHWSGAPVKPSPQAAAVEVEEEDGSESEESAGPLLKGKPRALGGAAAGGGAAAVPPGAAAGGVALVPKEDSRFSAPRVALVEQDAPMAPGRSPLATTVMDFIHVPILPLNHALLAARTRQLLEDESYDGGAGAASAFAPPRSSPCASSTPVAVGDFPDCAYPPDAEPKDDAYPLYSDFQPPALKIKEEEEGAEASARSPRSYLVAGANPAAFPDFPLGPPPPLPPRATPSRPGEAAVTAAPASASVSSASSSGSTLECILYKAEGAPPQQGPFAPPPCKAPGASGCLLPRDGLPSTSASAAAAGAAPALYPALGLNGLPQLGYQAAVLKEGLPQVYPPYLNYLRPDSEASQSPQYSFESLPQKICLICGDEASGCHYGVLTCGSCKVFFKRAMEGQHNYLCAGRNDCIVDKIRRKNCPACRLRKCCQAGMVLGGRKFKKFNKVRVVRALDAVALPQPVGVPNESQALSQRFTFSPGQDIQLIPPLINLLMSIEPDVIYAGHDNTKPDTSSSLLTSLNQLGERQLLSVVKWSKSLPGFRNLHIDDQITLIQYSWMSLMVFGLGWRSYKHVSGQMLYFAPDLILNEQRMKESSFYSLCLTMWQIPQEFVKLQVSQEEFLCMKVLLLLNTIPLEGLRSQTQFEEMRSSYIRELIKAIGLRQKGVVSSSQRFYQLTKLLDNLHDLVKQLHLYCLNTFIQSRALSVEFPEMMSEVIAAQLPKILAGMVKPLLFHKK
- Procedure Details: Percent agonistic effect towards human progesterone receptor in CV-1 cells
- Format: functional, cell-based
Readout Type: Efficacy (%)
Give bare numbers, in %.

Illustrative cases are given below, each with its answer.
Structure Notation	Efficacy [%]
CCCc1ccccc1/C=C1\Oc2ccc(F)cc2-c2ccc3c(c21)C(C)=CC(C)(C)N3	123
CC1=CC(C)(C)Nc2ccc3c(c21)/C(=C/c1ccccc1C#N)Oc1ccc(F)cc1-3	78
CC1=CC(C)(C)Nc2ccc3c(c21)/C(=C/c1ccncc1C)Oc1ccc(F)cc1-3	138
CC1=CC(C)(C)Nc2ccc3c(c21)/C(=C/c1ccccn1)Oc1ccc(F)cc1-3	50
CC1=CC(C)(C)Nc2ccc3c(c21)/C(=C/c1ccccc1F)Oc1ccc(F)cc1-3	190
CCc1ccccc1/C=C1\Oc2ccc(F)cc2-c2ccc3c(c21)C(C)=CC(C)(C)N3	161
CC1=CC(C)(C)Nc2ccc3c(c21)/C(=C/c1cccc(F)c1)Oc1c(F)cccc1-3	170
CC1=CC(C)(C)Nc2ccc3c(c21)/C(=C/c1ccccc1C=O)Oc1ccc(F)cc1-3	107

Could you tell me Efficacy for each of these compounds? They are listed below.
1. CSc1ccccc1/C=C1\Oc2ccc(F)cc2-c2ccc3c(c21)C(C)=CC(C)(C)N3
2. CC1=CC(C)(C)Nc2ccc3c(c21)/C(=C/c1ccccc1)Oc1ccc(F)cc1-3
3. CC1=CC(C)(C)Nc2ccc3c(c21)/C(=C/c1ccccc1)Oc1c(F)cccc1-3
4. CC1=CC(C)(C)Nc2ccc3c(c21)/C(=C/c1ccccc1Cl)Oc1ccc(F)cc1-3
5. CC1=CC(C)(C)Nc2ccc3c(c21)/C(=C/c1ccccc1Br)Oc1ccc(F)cc1-3
6. CC1=CC(C)(C)Nc2ccc3c(c21)/C(=C/c1ncccc1C)Oc1ccc(F)cc1-3
7. CC1=CC(C)(C)Nc2ccc3c(c21)/C(=C/c1ccsc1)Oc1ccc(F)cc1-3

Response:
[132, 176, 171, 146, 147, 125, 174]

Query: # input compound: CC1=CC(C)(C)Nc2ccc3c(c21)/C(=C/c1ccc(F)cc1)Oc1c(F)cccc1-3 ; wanted: its Efficacy
Response: 175

###

- Assayed Target: Glucocorticoid receptor (Homo sapiens)
- Sequence (P04150 whole entry): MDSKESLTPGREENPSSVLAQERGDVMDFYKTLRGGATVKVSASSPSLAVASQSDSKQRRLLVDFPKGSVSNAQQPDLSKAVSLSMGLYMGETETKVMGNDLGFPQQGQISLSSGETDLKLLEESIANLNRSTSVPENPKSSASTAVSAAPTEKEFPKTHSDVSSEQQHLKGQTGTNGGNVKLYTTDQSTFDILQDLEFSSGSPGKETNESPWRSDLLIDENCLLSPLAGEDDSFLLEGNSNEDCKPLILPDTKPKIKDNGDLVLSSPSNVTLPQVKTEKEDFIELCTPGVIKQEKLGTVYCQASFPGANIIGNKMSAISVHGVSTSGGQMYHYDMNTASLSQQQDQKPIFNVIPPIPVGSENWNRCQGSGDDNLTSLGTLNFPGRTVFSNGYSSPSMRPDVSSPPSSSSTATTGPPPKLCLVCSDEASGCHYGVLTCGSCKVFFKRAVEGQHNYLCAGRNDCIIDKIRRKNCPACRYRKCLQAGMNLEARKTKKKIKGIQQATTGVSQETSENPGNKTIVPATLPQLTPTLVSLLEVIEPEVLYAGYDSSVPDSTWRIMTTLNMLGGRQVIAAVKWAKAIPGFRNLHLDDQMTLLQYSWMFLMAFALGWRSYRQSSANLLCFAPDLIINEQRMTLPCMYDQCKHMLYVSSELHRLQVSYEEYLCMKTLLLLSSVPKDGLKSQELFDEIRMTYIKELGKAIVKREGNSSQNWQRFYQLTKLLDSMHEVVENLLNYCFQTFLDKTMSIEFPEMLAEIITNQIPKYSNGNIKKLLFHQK
Readout Type: Ki (nM)
Give bare numbers, in nM.

Structure Notation	Readout Type	Measured
CC1=CC(C)(C)Nc2ccc3c(c21)/C(=C/c1ccsc1)Oc1ccc(F)cc1-3	Ki	84

Give Ki for all compounds that follow.
1. CCc1ccccc1/C=C1\Oc2ccc(F)cc2-c2ccc3c(c21)C(C)=CC(C)(C)N3
2. CC1=CC(C)(C)Nc2ccc3c(c21)/C(=C/c1ccco1)Oc1ccc(F)cc1-3

Response:
1: 270; 2: 140

Query: So what's the measured Ki for this one? COc1ccccc1/C=C1\Oc2ccc(F)cc2-c2ccc3c(c21)C(C)=CC(C)(C)N3
Response: 277
